# assayed system: Gastrin/cholecystokinin type B receptor (Rattus norvegicus) (UniProt P30553)
# Sequence (P30553 whole entry): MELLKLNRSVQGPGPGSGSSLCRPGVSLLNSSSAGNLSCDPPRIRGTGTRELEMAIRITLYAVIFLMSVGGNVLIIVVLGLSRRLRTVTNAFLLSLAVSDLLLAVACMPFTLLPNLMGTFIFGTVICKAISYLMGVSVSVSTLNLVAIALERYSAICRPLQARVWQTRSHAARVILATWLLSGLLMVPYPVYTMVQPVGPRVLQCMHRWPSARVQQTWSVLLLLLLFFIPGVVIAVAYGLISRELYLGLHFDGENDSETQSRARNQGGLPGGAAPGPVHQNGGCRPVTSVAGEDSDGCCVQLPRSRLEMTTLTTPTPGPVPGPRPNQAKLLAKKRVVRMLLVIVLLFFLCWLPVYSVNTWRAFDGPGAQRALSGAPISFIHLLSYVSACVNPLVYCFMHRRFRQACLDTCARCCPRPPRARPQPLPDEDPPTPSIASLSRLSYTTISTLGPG
# experimental setup: Stomach
# Description: Antagonist activity at CCK2 receptor in stomach-lumen perfused immature rat
Classify as follows. Reported pKb greater than or equal to 8: T. Reported pKb below: F.

Example entries begin here.
compound	assayed system	class
O=C(O)c1cc(NC(=O)[C@H](Cc2ccccc2)NC(=O)C2C3c4ccccc4C(c4ccccc43)C2C(=O)NCC23CC4CC(CC(C4)C2)C3)cc(C(=O)O)c1 (some centres not stated)	Gastrin/cholecystokinin type B receptor (Rattus norvegicus) (UniProt P30553)	T
O=C(O)C1C2c3ccccc3C(c3ccccc32)C1C(=O)NCC12CC3CC(CC(C3)C1)C2 (configuration not stated)	Gastrin/cholecystokinin type B receptor (Rattus norvegicus) (UniProt P30553)	F
CC(=O)N1[C@H](CC23CC4CC(CC(C4)C2)C3)C(=O)N(Cc2ccccc2)c2ccccc2C(=O)C[C@H]1C(=O)NCC(=O)O	Gastrin/cholecystokinin type B receptor (Rattus norvegicus) (UniProt P30553)	F
O=C(O)c1cc(NC(=O)[C@H](Cc2ccccc2)NC(=O)c2cc3cc[nH]c3cc2C(=O)NC2CCCCCC2)cc(C(=O)O)c1	Gastrin/cholecystokinin type B receptor (Rattus norvegicus) (UniProt P30553)	T

Input: Please indicate if the recorded pKb for Cc1cccc(NC(=O)N[C@@H]2N=C(c3ccccc3)c3ccccc3N(C)C2=O)c1 [L-365260] meets or exceeds 8.
Output: F

Input: Please indicate if the recorded pKb for O=C(O)c1cc(NC(=O)[C@H](Cc2ccccc2)NC(=O)c2cc3cc[nH]c3cc2C(=O)NCC23CC4CC(CC(C4)C2)C3)cc(C(=O)O)c1 meets or exceeds 8.
Output: T

###

Target protein (sequence): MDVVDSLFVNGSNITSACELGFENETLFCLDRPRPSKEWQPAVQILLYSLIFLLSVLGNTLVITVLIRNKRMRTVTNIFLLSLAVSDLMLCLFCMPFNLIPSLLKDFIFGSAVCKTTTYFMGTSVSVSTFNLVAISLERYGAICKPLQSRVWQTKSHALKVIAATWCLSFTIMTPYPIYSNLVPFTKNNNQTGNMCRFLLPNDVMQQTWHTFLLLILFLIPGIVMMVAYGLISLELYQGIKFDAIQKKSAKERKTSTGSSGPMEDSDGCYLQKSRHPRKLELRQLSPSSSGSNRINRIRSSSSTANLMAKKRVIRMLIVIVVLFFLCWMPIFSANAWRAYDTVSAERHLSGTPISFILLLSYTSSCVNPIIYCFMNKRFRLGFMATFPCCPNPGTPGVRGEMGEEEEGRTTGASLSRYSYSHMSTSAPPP
measured metric: pKi
Answers are plain numbers, as −log10 of the molar value.

Look over these answered cases.
> print(dat)
                                   compound  reported.value
1  O=C(O)c1cc(NC(=O)[C@H](Cc2ccccc2)NC(=O)c2cc3sccc3cc2C(=O)NCC23CC4CC(CC(C4)C2)C3)cc(C(=O)O)c1            6.10
2  Cn1ccc2cc(C(=O)N[C@@H](Cc3ccccc3)C(=O)Nc3cc(C(=O)O)cc(C(=O)O)c3)c(C(=O)NCC34CC5CC(CC(C5)C3)C4)cc21            5.40
3  COc1ccc(CCNC(=O)[C@H](CC(=O)O)NC(=O)[C@H](Cc2ccc3ccccc3c2)NC(=O)[C@H](Cc2c[nH]c3ccccc23)NC(=O)OC(C)(C)C)cc1            7.20
4  O=C1NN(C(=O)Nc2ccc(Br)cc2)[C@H](c2ccccc2)[C@H]1c1ccccc1            4.70
5  CC(=O)N1[C@H](CC23CC4CC(CC(C4)C2)C3)C(=O)N(Cc2ccccc2)c2ccccc2C(=O)C[C@H]1C(=O)NCC(=O)O            5.10

Record pKi for all entries; do not skip any.
1. C[C@@H](NC(=O)C[C@@H]1CCCN1C(=O)C1C2c3ccccc3C(c3ccccc32)C1C(=O)NCC12CC3CC(CC(C3)C1)C2)C(=O)O (some centres not stated)
2. Nc1cccc2cc(C(=O)NCC34CC5CC(CC(C5)C3)C4)c(C(=O)N[C@@H](Cc3ccccc3)C(=O)Nc3cc(C(=O)O)cc(C(=O)O)c3)cc12

Output:
4.60
5.60

Provenance of the data: ChEMBL document CHEMBL1140745
